- experimentalDetails: Pharmacokinetic properties in Sprague-Dawley rats after IV and PO administration
- Assay type: in vivo
- experimentalContext: male, plasma, 1 mg/kg, rat, IV (1 mpk)
Listed next: entries and their corresponding half-life.
// note: answer is a bare numeric in h

Example results:
{"compound": "CC(C)Oc1c([C@H](C)c2nc(Cl)c3c(N)nccn23)cc(Cl)c(F)c1-c1ccc(C(F)(F)F)nc1 [Compound 40A]", "unitDescriptor": "h", "half-life": 9}
{"compound": "CC(C)Oc1c(C(C)c2nc(Cl)c3c(N)nccn23)cc(Cl)c(F)c1C1CNC(=O)C1 (single isomer, unassigned) [Compound 48B]", "unitDescriptor": "h", "half-life": 1.4}

# next compound below
Reported half-life for CC(C)Oc1c([C@H](C)c2nc(Cl)c3c(N)nccn23)cc(Cl)c(F)c1-c1ccc(C(=O)N(C)C)nc1 [Compound 16A] was 1.3
